Just for reference, ChEMBL document CHEMBL4842357 is where these values come from.

assay: MRT in Sprague-Dawley rat at 5 mg/kg, iv; type: ADME, organism-based; settings: in vivo
parameter: MRT (h)
Numbers only, in h.

Query: Quick one: MRT for `Cl.Cl.O=c1cc(-c2ccc(O)cc2)oc2c(CN3CCN(Cc4cccs4)CC3)c(O)cc(O)c12` ?
Reply: 3.14

###

species: Homo sapiens; test: Selectivity index, ratio of IC50 for inhibition of recombinant human full-length PARP-2 to IC50 for inhibition of recombinant human full-length PARP-1
For each record, write down the corresponding Ratio IC50.
Give bare numbers.

// solved cases for Ratio IC50 follow
[[record]]
compound = "O=C(C1CCC1)N1CCN(Cc2c(O)cc(O)c3c(=O)cc(-c4ccc(O)cc4)oc23)CC1"
observed_value = 57.1

[[record]]
compound = "O=c1cc(-c2ccc(O)cc2)oc2c(CN3CCN(Cc4ccoc4)CC3)c(O)cc(O)c12"
observed_value = 59.4

[[record]]
compound = "O=c1cc(-c2cccc(-c3c(O)cc(O)c4c(=O)cc(-c5ccco5)oc34)c2)oc2cc(O)cc(O)c12"
observed_value = 38

[[record]]
compound = "O=C(c1ccc(Cl)cc1)N1CCN(Cc2c(O)cc(O)c3c(=O)cc(-c4ccc(O)cc4)oc23)CC1"
observed_value = 53.4

[[record]]
compound = "O=c1cc(-c2ccc(O)cc2)oc2c(CN3CCN(c4ccc(F)cc4)CC3)c(O)cc(O)c12"
observed_value = 56.4

[[record]]
compound = "O=c1cc(-c2cccc(-c3c(O)cc(O)c4c(=O)cc(-c5ccc(O)c(O)c5)oc34)c2)oc2cc(O)cc(O)c12"
observed_value = 45.9


Field: Ratio IC50. Fill in for each record below.
1. O=c1cc(-c2cccc(-c3c(O)cc(O)c4c(=O)cc(-c5ccc(O)cc5)oc34)c2)oc2cc(O)cc(O)c12
2. O=C(c1ccncc1)N1CCN(Cc2c(O)cc(O)c3c(=O)cc(-c4ccc(O)cc4)oc23)CC1
3. O=c1cc(-c2ccc(O)cc2)oc2c(CN3CCN(Cc4ccsc4)CC3)c(O)cc(O)c12
4. O=c1cc(-c2ccc(O)cc2)oc2c(CN3CCC(CO)CC3)c(O)cc(O)c12
5. O=C(c1cccc(C(F)(F)F)c1)N1CCN(Cc2c(O)cc(O)c3c(=O)cc(-c4ccc(O)cc4)oc23)CC1
6. O=c1cc(-c2ccc(O)cc2)oc2c(CN3CCN(c4cncnc4)CC3)c(O)cc(O)c12
7. O=C(c1cccs1)N1CCN(Cc2c(O)cc(O)c3c(=O)cc(-c4ccc(O)cc4)oc23)CC1

Reply:
1: 52.5; 2: 50.7; 3: 56.2; 4: 59.8; 5: 69.2; 6: 61; 7: 69.6

Field: Ratio IC50. Fill in for each record below.
1. O=c1cc(-c2ccc(O)cc2)oc2c(CN3CCN(CC4CCCO4)CC3)c(O)cc(O)c12 (stereo not drawn)
2. O=C(OCc1ccccc1)N1CCN(Cc2c(O)cc(O)c3c(=O)cc(-c4ccc(O)cc4)oc23)CC1
3. COc1ccc(CN2CCN(Cc3c(O)cc(O)c4c(=O)cc(-c5ccc(O)cc5)oc34)CC2)cc1
4. O=c1cc(-c2ccc(O)cc2)oc2c(CN3CCN(c4ccccc4O)CC3)c(O)cc(O)c12

Reply:
[61.9, 47.9, 56.5, 54]

Query: Quick one: Ratio IC50 for `O=c1cc(-c2ccc(O)cc2)oc2c(CN3CC=C(c4ccccc4)CC3)c(O)cc(O)c12` ?
Reply: 56.6
